Target: T1, human CD137-Fc (human, biotin-labeled)
T1 construct: if 90 already holds the Fc, drop the second piece; also called biotin-labeled human CD137 fused to human IgG1 Fc fragment; biotin-human CD137-Fc; not shown: human IgG1 Fc fragment
T1 sequence (chain, as listed by the source): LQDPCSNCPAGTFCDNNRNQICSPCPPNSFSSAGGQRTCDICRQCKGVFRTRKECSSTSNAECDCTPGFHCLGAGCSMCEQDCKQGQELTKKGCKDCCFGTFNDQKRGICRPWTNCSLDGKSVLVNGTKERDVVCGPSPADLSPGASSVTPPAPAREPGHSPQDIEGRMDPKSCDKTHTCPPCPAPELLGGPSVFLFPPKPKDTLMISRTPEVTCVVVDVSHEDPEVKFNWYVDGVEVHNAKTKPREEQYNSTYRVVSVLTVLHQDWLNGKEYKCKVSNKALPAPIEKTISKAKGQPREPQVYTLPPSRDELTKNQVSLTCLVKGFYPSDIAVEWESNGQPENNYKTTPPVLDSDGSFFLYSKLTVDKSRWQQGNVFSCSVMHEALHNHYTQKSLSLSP
Test: bead ELISA on biotin-human CD137-Fc, 125 vs 0 pmol free CD3e peptide;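 also: target captured on streptavidin-coated magnetic beads, signal read as fluorescence 2 min after adding APS-5 substrate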
Listed here are binders together with their documented Signal decrease.
value kind: Signal decrease (%)

{"binder": "dBBDu167 (antibody, V domains shown, Human IgG1; light chain GLS3000 (kappa)) VH: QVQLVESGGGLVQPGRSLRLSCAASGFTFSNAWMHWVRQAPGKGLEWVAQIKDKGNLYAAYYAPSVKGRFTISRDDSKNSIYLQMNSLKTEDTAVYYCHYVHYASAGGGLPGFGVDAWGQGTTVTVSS VL: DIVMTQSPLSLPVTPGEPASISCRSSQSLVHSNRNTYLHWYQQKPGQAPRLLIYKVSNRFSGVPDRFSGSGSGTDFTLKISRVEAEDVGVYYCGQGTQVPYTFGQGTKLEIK", "observed measurement": 92.5}
{"binder": "DXDU01_3#094 (antibody, V domains shown, Human IgG1; light chain GLS3000 (kappa); also called dBBDu121) VH: QVQLVESGGGLVQPGRSLRLSCAASGFTFSNAWMHWVRQAPGKGLEWVAQIKDKGNAYAAYYAPSVKGRFTISRDDSKNSIYLQMNSLKTEDTAVYYCHYVHYASAAGGLPGFGVDAWGQGTTVTVSS VL: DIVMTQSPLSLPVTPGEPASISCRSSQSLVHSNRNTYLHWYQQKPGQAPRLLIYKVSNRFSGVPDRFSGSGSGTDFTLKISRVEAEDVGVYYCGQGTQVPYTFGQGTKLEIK", "observed measurement": 49.4}
{"binder": "dBBDu217 (antibody, V domains shown, Human IgG1; light chain GLS3000 (kappa)) VH: QVQLVESGGGLVQPGRSLRLSCAASGFTFSNAWMHWVRQAPGKGLEWVAQIKDRQQGYATYYAPSVKGRFTISRDDSKNSIYLQMNSLKTEDTAVYYCRFVHYHLAGYGYYGVDAWGQGTTVTVSS VL: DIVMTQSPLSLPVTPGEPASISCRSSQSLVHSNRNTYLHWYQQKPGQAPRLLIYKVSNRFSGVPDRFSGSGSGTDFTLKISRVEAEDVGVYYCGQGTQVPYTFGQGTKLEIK", "observed measurement": 87.3}
{"binder": "dBBDu196 (antibody, V domains shown, Human IgG1; light chain GLS3000 (kappa)) VH: QVQLVESGGGLVQPGRSLRLSCAASGFTFSNAWMHWVRQAPGKGLEWVAQIKDRGNAYNAYYAESVKGRFTISRDDSKNSIYLQMNSLKTEDTAVYYCHYVHYASASTVLPAFGVDAWGQGTTVTVSS VL: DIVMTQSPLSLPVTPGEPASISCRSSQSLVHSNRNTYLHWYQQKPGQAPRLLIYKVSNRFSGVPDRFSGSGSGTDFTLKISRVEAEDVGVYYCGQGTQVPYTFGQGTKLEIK", "observed measurement": 93.3}
{"binder": "DADU01_3#018 (antibody, V domains shown, Human IgG1; light chain GLS3000 (kappa); also called dBBDu123) VH: QVQLVESGGGLVQPGRSLRLSCAASGFTFSNAWMHWVRQAPGKGLEWVAQIKDRANSYNAYYAPSVKGRFTISRDDSKNSIYLQMNSLKTEDTAVYYCHYVHYSAASTLLPSFGVDAWGQGTTVTVSS VL: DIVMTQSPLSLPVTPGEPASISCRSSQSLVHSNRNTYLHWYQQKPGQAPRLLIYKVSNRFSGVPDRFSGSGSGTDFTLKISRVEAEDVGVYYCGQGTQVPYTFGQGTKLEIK", "observed measurement": 33}
{"binder": "DXDU01_3#051 (antibody, V domains shown, Human IgG1; light chain GLS3000 (kappa); also called dBBDu127) VH: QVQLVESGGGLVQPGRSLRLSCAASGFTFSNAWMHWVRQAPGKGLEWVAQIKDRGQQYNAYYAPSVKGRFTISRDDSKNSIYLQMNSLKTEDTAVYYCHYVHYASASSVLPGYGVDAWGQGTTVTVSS VL: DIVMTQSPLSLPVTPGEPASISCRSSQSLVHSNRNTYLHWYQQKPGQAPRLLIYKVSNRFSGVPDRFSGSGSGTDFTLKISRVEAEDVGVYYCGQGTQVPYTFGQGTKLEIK", "observed measurement": 32}
{"binder": "DADU01_3#002 (antibody, V domains shown, Human IgG1; light chain GLS3000 (kappa); also called dBBDu124) VH: QVQLVESGGGLVQPGRSLRLSCAASGFTFSNAWMHWVRQAPGKGLEWVAQIKDKQNLYNAYYAESVKGRFTISRDDSKNSIYLQMNSLKTEDTAVYYCHYVHYASASTVLPAFGVDAWGQGTTVTVSS VL: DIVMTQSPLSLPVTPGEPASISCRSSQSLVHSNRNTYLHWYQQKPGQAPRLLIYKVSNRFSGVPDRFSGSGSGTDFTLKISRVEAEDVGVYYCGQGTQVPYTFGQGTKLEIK", "observed measurement": 68}
{"binder": "dBBDu199 (antibody, V domains shown, Human IgG1; light chain GLS3000 (kappa)) VH: QVQLVESGGGLVQPGRSLRLSCAASGFTFSNAWMHWVRQAPGKGLEWVAQIKDKQSGYNTYYAPSVKGRFTISRDDSKNSIYLQMNSLKTEDTAVYYCHYVHYASASTVLPAFGVDAWGQGTTVTVSS VL: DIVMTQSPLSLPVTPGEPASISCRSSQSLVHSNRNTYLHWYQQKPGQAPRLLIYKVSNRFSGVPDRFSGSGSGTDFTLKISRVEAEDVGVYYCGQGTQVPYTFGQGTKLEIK", "observed measurement": 94.2}
{"binder": "dBBDu189 (antibody, V domains shown, Human IgG1; light chain GLS3000 (kappa)) VH: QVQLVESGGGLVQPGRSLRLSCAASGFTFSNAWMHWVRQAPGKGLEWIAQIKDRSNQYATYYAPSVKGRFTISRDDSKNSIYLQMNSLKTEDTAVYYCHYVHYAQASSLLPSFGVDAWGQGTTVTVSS VL: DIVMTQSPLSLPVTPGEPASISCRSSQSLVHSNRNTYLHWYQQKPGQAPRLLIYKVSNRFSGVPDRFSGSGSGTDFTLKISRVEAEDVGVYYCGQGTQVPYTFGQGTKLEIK", "observed measurement": 92}
{"binder": "dBBDu173 (antibody, V domains shown, Human IgG1; light chain GLS3000 (kappa)) VH: QVQLVESGGGLVQPGRSLRLSCAASGFTFSNAWMHWVRQAPGKGLEWVAQIKDKGNLYAAYYAPSVKGRFTISRDDSKNSIYLQMNSLKTEDTAVYYCHYVHYASAGGGLSAYGVDAWGQGTTVTVSS VL: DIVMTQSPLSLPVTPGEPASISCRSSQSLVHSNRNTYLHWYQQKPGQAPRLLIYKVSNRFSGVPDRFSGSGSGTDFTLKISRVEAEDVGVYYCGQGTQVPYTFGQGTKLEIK", "observed measurement": 68.8}
